Tested on: HL-1
Experiment: relative cell viability (CellTiter-Glo) vs DMSO control (% of DMSO control); higher = more viable cells
Conditions: oxygen condition: normoxia 72 h; 1000 nM
Structures can show the parent of a compound that is named as a salt.
Assay Metric: relative cell viability

CSc1ccc2c(c1)N(CCC1CCCCN1C)c1ccccc1S2 (centres undefined) [Thioridazine HCl] ... 98.7
CCc1ccc(CCOc2ccc(CC3SC(=O)NC3=O)cc2)nc1 (centres undefined) [Pioglitazone hydrochloride] ... 101
CN(C)CCc1c[nH]c2ccc(C[C@H]3COC(=O)N3)cc12 ... 102
CCCc1nn(C)c2c(=O)[nH]c(-c3cc(S(=O)(=O)N4CCN(C)CC4)ccc3OCC)nc12 [Sildenafil citrate] ... 101
